# tgt: aldose reductase (Bos taurus, UniProt P16116)
# Construct: partially purified aldose reductase enzyme obtained from calf lens; from tissue; host or cells: calf lens
# experiment summary: Aldose reductase inhibitory activity (partially purified enzyme from calf lens)
# Type: biochemical
# experimental conditions: 10^-4 M, relative to untreated controls, Examples 2, 4, 5: average of two tests, read-out: Degree of Inhibition at 10^-4 Molar
assay metric: inhibition at 100 µM (%)
Your answer is read as %, so omit the unit and give the number.

# count of solved cases: 5
| substance smiles | unit abbreviation | inhibition at 100 µM |
| --- | --- | --- |
| Cc1ccc2c(CC(=O)O)cc(=O)oc2c1 | % | 94 |
| Cc1cc2oc(=O)c(C)c(CC(=O)O)c2cc1C | % | 81 |
| Cc1cc(C)c2c(CC(=O)O)cc(=O)oc2c1 | % | 91 |
| Cc1cc(Cl)cc2c(C(=O)O)cc(=O)oc12 | % | 65 |
| O=C(O)Cc1cc(=O)oc2c1cc(Cl)c1ccccc12 | % | 91 |

Query string: # return recorded inhibition at 100 µM for entry `Cc1cc2oc(=O)cc(CC(=O)O)c2cc1C`
Result string: 94
